Values were extracted from paper PMC9626498.

- EXPERIMENTAL TARGET: acetylcholinesterase (AChE) (Electrophorus electricus)
- Sequence (O42275 24-633): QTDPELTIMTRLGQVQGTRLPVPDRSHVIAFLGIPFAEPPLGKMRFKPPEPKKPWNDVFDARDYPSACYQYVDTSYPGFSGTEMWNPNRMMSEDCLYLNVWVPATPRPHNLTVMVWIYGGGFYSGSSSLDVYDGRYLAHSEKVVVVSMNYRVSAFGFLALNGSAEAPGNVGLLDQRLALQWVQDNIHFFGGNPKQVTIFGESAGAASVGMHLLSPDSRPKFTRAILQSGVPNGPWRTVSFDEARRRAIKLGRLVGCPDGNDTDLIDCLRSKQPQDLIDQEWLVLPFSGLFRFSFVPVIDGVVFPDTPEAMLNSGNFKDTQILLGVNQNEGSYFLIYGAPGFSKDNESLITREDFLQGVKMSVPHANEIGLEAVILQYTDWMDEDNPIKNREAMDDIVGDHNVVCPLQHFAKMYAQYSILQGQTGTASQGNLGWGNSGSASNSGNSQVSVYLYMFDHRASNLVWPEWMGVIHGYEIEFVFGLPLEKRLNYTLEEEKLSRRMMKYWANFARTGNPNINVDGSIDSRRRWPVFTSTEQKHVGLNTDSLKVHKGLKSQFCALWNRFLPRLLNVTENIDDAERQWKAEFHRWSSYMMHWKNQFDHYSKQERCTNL
ASSAY READOUT: IC50 (µM)
One number for each entry, in µM.

Kindly note the recorded IC50 for C[C@@H]1O[C@@H](O[C@H]2C(=O)c3c(O)cc(O)cc3O[C@@H]2c2cc(O)c(O)c(O)c2)[C@H](O)[C@H](O)[C@H]1O [compound 1, dihydromyricetin 3-O-rhamnoside] , which is 70

---

- EXPERIMENTAL TARGET: butyrylcholinesterase (BChE) (Equus caballus, UniProt P81908)
- Sequence (P81908 whole entry): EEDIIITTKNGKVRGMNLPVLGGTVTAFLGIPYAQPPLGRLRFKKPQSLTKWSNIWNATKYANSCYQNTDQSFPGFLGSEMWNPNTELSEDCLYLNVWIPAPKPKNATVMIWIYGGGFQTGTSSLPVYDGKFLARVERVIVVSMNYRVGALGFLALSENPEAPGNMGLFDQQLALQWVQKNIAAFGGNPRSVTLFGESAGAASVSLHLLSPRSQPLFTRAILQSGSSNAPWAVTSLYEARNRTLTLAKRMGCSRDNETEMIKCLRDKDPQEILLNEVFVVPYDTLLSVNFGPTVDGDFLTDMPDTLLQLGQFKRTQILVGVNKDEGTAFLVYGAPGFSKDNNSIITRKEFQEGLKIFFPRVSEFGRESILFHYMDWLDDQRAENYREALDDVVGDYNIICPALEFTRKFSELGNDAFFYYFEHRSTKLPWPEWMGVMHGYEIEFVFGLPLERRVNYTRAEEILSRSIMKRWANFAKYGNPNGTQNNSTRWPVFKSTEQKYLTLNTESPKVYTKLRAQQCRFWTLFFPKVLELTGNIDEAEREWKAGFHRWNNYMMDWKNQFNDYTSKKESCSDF
ASSAY READOUT: pIC50
Numbers only, as −log10 of the molar value.

Kindly note the recorded pIC50 for C[C@@H]1O[C@@H](O[C@H]2C(=O)c3c(O)cc(O)cc3O[C@@H]2c2cc(O)c(O)c(O)c2)[C@H](O)[C@H](O)[C@H]1O [compound 1, dihydromyricetin 3-O-rhamnoside] , which is 4.15
